IC50 overview
target or system: T1, mouse IgG2a Fc-tagged human PVRIG (h-PVRIG-mIgG2a Fc) recombinant protein (human, UniProt Q6DKI7 41-171, limits assumed)
T1 construct: bought from Acrobiosystems; not shown: mouse IgG2a Fc tag
T1 sequence (looked up): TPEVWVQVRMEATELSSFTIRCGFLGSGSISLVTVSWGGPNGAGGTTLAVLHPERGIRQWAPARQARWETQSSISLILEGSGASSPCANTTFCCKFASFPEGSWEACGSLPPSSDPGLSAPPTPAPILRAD
assay remarks: competition ELISA; coated h-PVRIG-mIgG2a Fc, competitor his-PVRL2
property measured: IC50 (pM)

binder	property measured	measurement
anti-PVRIG antibody 38 (antibody, human IgG4 S228P, F234A L235A, V domains shown, no light chain) VH: QVQLVESGGGSVQAGGSLRLSCAASPSTYGPSDMAWFRQAPGKQREGVATISAAGRLTYYTDSVRGRFTISRDNAKNTMYLQMNSLKPEDTAMYYCAADFAGGSSLFADYKYWGQGTQVTVSS	IC50	930
anti-PVRIG antibody 30 (antibody, human IgG4 S228P, F234A L235A, V domains shown, no light chain) VH: HVQLVESGGGSVQAGGSLRLSCEASGYSYSGDCMGWFRRAPGKERDEGVATIDNAGRIKYADSVKGRFTISHGNGKYILYLQMNSLKPEDTDMYYCAAGWTFGGNCSPADWGQGTQVTVSS	IC50	1110
positive antibody Tab5 (antibody, human IgG4 S228P, kappa, F234A L235A, V domains shown, Variable regions of CPA.7.021 (WO2016134333A1) on human IgG4 (S228P/F234A/L235A/K447A) and human kappa constant regions) VH: EVQLVESGGGVVKPGGSLRLSCAASGFTFGTSSMNWVRQAPGKGLEWVAVISFDGTEIHYADSVKGRFTISRDNSKSTVFLQMNSLRPDDTALYYCAKGSGNIYFYSGMDVWGQGTTVTVSS VL: DIQMTQSPSTLSASVGDRVTITCRAGQSISGWLAWFQQKPGKAPNLLIYETSTLESGVPSRFSGSGSGTEYTLTISSLQPDDFATYYCQQYYSYPLTFGQGTKVEIKR	IC50	1160
anti-PVRIG antibody 151 (antibody, human IgG4 S228P, F234A L235A, V domains shown, no light chain) VH: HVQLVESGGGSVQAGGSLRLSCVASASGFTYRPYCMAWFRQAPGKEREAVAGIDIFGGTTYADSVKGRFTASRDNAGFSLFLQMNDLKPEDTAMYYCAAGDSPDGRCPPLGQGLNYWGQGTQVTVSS	IC50	370
anti-PVRIG antibody 39 (antibody, human IgG4 S228P, F234A L235A, V domains shown, no light chain) VH: QVQLVESGGGSVQAGGSLRLSCAASRYTSRTDCMGWFRQAPGKEREGVAHIDSDGIPRYVESVKGRFTISQDHAKNTLYLQMNSLKPEDSATYYCVVGFKFGDYCAPNDWGQGTQVTVSS	IC50	760
